TEST NAME: Fluorescence titration of labeled ParM with ATP
Type: binding
PROTOCOL CONDITIONS: Table 2
READOUT KIND: Kd ratio ATP/ADP
// keep it numeric: no unit symbol after the value

Reported Kd ratio ATP/ADP, molecule T175L: MDCC-ParM (His6/I27C/T175L/C287A) (conjugate, UniProt P11904 1-320, looked up, variant I27C T175L C287A, MDCC label; His6 tag) Plasmid segregation protein …: MLVFIDDGSTNIKLQWQESDGTIKQHCSPNSFKREWAVSFGDKKVFNYTLNGEQYSFDPISPDAVVTTNIAWQYSDVNVVAVHHALLTSGLPVSEVDIVCTLPLTEYYDRNNQPNTENIERKKANFRKKITLNGGDTFTIKDVKVMPESIPAGYEVLQELDELDSLLIIDLGGTLLDISQVMGKLSGISKIYGDSSLGVSLVTSAVKDALSLARTKGSSYLADDIIIHRKDNNYLKQRINDENKISIVTEAMNEALRKLEQRVLNTLNEFSGYTHVMVIGGGAELIADAVKKHTQIRDERFFKTNNSQYDLVNGMYLIGN : ____
324

More entries:
Fill in: Kd ratio ATP/ADP of T175N: MDCC-ParM (His6/I27C/T175N/C287A) (conjugate, UniProt P11904 1-320, looked up, variant I27C T175N C287A, MDCC label; His6 tag) Plasmid segregation protein …: MLVFIDDGSTNIKLQWQESDGTIKQHCSPNSFKREWAVSFGDKKVFNYTLNGEQYSFDPISPDAVVTTNIAWQYSDVNVVAVHHALLTSGLPVSEVDIVCTLPLTEYYDRNNQPNTENIERKKANFRKKITLNGGDTFTIKDVKVMPESIPAGYEVLQELDELDSLLIIDLGGTNLDISQVMGKLSGISKIYGDSSLGVSLVTSAVKDALSLARTKGSSYLADDIIIHRKDNNYLKQRINDENKISIVTEAMNEALRKLEQRVLNTLNEFSGYTHVMVIGGGAELIADAVKKHTQIRDERFFKTNNSQYDLVNGMYLIGN is ___
307
